- Tested on: infectious agents (strains tested)
- assay-info: microbe, parasite or virus in culture
- Format: cell-based
- condition-set: Aspergillus flavus; read-out: Geometric Mean MIC

- compound: "CCC([C@@H](C)O)n1ncn(-c2ccc(N3CCN(c4ccc(OC[C@@H]5CO[C@@](Cn6cncn6)(c6ccc(F)cc6F)C5)cc4)CC3)cc2)c1=O (stereo partly shown) [Posaconazole]"
  MIC / µg/mL: 0.079
- compound: "CCC(C)n1ncn(-c2ccc(N3CCN(c4ccc(OCC5COC(Cn6cncn6)(c6ccc(Cl)cc6Cl)O5)cc4)CC3)cc2)c1=O (stereo not shown) [Itraconazole]"
  MIC / µg/mL: 0.213
- compound: "C[C@@H]1[C@H](O)[C@@H](C)/C=C/C=C/C=C/C=C/C=C/C=C/C=C/[C@H](O[C@@H]2O[C@H](C)[C@@H](O)[C@H](N)[C@@H]2O)C[C@@H]2O[C@](O)(C[C@@H](O)C[C@@H](O)[C@H](O)CC[C@@H](O)C[C@@H](O)CC(=O)O[C@H]1C)C[C@H](O)[C@H]2C(=O)O [Amphotericin]"
  MIC / µg/mL: 0.91
- compound: "C[C@@H](c1ncncc1F)[C@](O)(Cn1cncn1)c1ccc(F)cc1F [Voriconazole]"
  MIC / µg/mL: 0.339
